Readings of LC50 for the listed molecules
test system: Rattus norvegicus; settings: acute; inhalation

>>> df
                                   molecule      target_system         result
0  [Na+].[S-]c1nc2ccccc2s1 [Sodium 2-mercaptobenzothiolate]  Rattus norvegicus     > 6.5 mg/L
1                                  c1ccncc1  Rattus norvegicus  < 12900 mg/m3
2        O=C(Cl)c1ccccc1 [Benzoyl chloride]  Rattus norvegicus      1.87 mg/L

[in] Give the reported value of LC50 for this record: CCCCCCO
[out] > 21 mg/L

[in] Give the reported value of LC50 for this record: CCCCCCCCCCCCCCCCCCOC(=O)CCc1cc(C(C)(C)C)c(O)c(C(C)(C)C)c1 [Octadecyl 3-(3,5-di-tert-butyl-4-hydroxyphenyl)propionate]
[out] > 1.8 mg/L

[in] Give the reported value of LC50 for this record: S=c1[nH]c2ccccc2s1
[out] > 1.27 mg/L

Where these numbers come from: EPA's ToxValDB 9.5
